Where do these numbers come from? They come from paper PMC11628845.

Reported IC50 values follow for various compounds
- Tested on: wild-type HBV (genotype C)
- ASSAY_NOTES: microbe, parasite or virus in culture
- Assay type: cell-based
- TEST_CONTEXT: Hepatitis B virus, Huh-7, read-out: HBeAg IC50

>  <COMPOUND>
COc1ccc(Cc2nc(NC(=O)C34CC5CC(CC(C5)C3)C4)n(C)c2Cc2ccc(OC)c(OC)c2)cc1 [11a]

>  <MEASUREMENT_TARGET>
wild-type HBV (genotype C)

>  <MEASURED>
12.9 µM

$$$$

Now examine the next entry.
Give IC50; test system wild-type HBV (genotype C); compound C=C1[C@H](CO)[C@@H](O)C[C@@H]1n1cnc2c(=O)[nH]c(N)nc21 [ETV, entecavir, reference compound]
> 100 µM
